measured on: UniProt:P43490
Sequence (P43490 whole entry): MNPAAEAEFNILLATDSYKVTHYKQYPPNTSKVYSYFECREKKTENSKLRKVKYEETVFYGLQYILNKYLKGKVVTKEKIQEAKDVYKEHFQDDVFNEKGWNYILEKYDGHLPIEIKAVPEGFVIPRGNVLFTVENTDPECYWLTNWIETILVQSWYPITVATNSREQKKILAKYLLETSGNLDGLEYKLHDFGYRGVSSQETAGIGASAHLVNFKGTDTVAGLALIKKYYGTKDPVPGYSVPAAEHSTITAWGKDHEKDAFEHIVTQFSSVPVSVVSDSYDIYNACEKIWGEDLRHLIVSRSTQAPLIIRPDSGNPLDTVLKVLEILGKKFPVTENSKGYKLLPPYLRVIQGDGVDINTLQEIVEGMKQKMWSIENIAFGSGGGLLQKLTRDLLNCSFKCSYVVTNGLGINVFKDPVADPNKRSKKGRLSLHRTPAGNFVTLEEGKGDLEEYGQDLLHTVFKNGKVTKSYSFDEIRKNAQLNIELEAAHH
assay details: Human recombinant enzyme assay (NMN fluorescence biochemical assay, activation of NAMPT)
experimental parameters: Table A; human recombinant NAMPT, NMN formation, 60 min
Procedure: Compounds described herein were assayed for their ability to stimulate the synthesis of nicotinamide mononucleotide (NMN) by the enzyme NAMPT. […] Dose responses were measured using an assay to detect the formation of nicotinamide mono-nucleotide. […] The plates were read for fluorescence (Excitation/Emission=355 nm/460 nm) using an EnVision plate reader after 40 mins of incubation at ambient temperature.
metric: AC1.4 Human (µM)

Observe how each entry below is paired with its result.
[
  {
    "compound": "COc1ccc(CNC(=O)NC2CC3(C2)CC(OCc2cccnc2)C3)cc1 (stereo not drawn)",
    "AC1.4 Human (µM)": 4.0
  },
  {
    "compound": "COc1ccc(CNC(=O)NC2CC3(C2)CN(C(=O)c2cccc(O)c2)C3)cc1",
    "AC1.4 Human (µM)": 2.8
  },
  {
    "compound": "COc1ccc(CNC(=O)NC2CC3(C2)CC(C(=O)NCc2cccnc2)C3)cc1 (stereo not drawn)",
    "AC1.4 Human (µM)": 6.6
  }
]

a: COc1ccc(CNC(=O)NC2CC3(CC(CN4CCCc5c(F)cc(F)cc54)C3)C2)cc1 (stereo not drawn)
b: Cc1cc(C(=O)NCC2CC3(C2)CC(NC(=O)NCc2ccc(Cl)cc2)C3)ccn1 (stereo not drawn)
c: COc1ccc(CNC(=O)NC2CC3(C2)CN(C(=O)c2cccc(C(C)(C)O)c2)C3)cc1
d: O=C(NCCCCCNC(=O)c1ccccc1F)NCc1ccc(Cl)cc1
Challenge: Order each entry by recorded AC1.4 Human, climbing from the minimum. Give the labels in the order specified.
Response given: d, a, b, c
(d: 0.7 µM, a: 1.4 µM, b: 2.1 µM, c: 5.5 µM)
